- target.system: UniProt:P31424
- Sequence (P31424 21-1203): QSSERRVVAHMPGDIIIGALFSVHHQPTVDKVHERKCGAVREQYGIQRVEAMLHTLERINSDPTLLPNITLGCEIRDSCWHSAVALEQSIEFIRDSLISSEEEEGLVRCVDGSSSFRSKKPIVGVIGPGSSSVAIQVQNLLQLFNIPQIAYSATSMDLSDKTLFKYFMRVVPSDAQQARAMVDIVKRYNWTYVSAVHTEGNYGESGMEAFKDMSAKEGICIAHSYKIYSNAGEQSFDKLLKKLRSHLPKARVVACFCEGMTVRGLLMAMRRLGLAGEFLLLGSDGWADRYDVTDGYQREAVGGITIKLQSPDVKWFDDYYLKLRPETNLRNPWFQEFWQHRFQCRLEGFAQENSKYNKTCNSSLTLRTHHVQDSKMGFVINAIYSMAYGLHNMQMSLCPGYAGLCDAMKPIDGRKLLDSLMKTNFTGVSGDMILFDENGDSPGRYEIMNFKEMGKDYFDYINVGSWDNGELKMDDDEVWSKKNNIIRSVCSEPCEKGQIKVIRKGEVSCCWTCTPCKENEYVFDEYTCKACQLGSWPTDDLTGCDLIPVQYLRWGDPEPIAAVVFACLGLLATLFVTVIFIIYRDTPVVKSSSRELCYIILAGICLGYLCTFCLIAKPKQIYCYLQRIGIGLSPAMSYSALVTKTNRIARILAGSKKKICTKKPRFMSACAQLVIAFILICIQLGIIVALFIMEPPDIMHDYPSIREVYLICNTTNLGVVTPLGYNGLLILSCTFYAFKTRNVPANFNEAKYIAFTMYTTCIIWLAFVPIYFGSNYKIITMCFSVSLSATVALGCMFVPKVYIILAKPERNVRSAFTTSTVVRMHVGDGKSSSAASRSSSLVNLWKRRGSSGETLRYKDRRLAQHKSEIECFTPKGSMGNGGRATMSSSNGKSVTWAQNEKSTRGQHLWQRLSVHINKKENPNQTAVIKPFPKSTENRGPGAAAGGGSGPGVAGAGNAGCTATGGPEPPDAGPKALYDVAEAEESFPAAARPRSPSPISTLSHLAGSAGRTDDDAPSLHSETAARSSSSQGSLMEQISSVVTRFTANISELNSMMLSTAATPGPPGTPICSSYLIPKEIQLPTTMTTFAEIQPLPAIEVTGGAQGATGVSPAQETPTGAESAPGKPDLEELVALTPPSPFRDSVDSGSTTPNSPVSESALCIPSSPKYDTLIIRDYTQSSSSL
- protocol.details: Calcium mobilization assay in HEK 293A cells stably expressing rat mGluR5
- Type: cell-based
- condition: HEK293-A; amplitude of response in the presence of 30 μM test compound as a percentage of maximal response (100 μM glutamate); read-out: % Glu Max
- Procedure: The cells were grown overnight at 37° C. in the presence of 5% CO2. […] Dye was removed, 20 μL of assay buffer was added, and the plate was incubated for 5 minutes at room temperature. Ca^2+ flux was measured using the Functional Drug Screening System (FDSS7000, Hamamatsu, Japan). After establishment of a fluorescence baseline for about 3 seconds, the compounds of the present invention were added to the cells, and the response in cells was measured. […]
Each entry below carries its reported remaining activity at 30 µM.
value.kind: remaining activity at 30 µM (%)

* Cc1csc(NC(=O)c2cc(-c3ccc4cnn(C)c4c3)cn3ncnc23)n1 | 30
* Cc1csc(NC(=O)c2cc(-c3ccnnc3)cn3ncnc23)n1 | 27
* Cc1csc(NC(=O)c2cc(-c3ccc4ncccc4c3)cn3ncnc23)n1 | 74
